The compounds listed here are annotated with their MIC.
- Test system: Staphylococcus Fk422
I only need the number, in µg/mL, no unit after it.

CCN1[C@H](C)CN(c2cc3c(cc2F)c(=O)c(C(=O)O)cn3C2CC2)C[C@@H]1C :: 0.5
CCN1CCN(c2cc3c(cc2F)c(=O)c(C(=O)O)cn3C2CC2)CC1C.I.O (stereo not shown) :: 0.5
C[C@@H]1CN(c2cc3c(cc2F)c(=O)c(C(=O)O)cn3C2CC2)C[C@H](C)N1 :: 0.5

Task: Notebook entry, Staphylococcus Fk422 assay: MIC of CC1CN(c2cc3c(cc2F)c(=O)c(C(=O)O)cn3C2CC2)CCN1 (stereo not shown) = ?
Output: 0.25

====

- System: Klebsiella 57 USA
// reported MIC per item
Express your answer in µg/mL, writing the number without its unit.

Here are 3 compounds together with their reported answers.
CCN1[C@H](C)CN(c2cc3c(cc2F)c(=O)c(C(=O)O)cn3C2CC2)C[C@@H]1C [Example 5] :: 0.5
CC1CN(c2cc3c(cc2F)c(=O)c(C(=O)O)cn3C2CC2)CCN1 (stereo not shown) [Example 1] :: 0.03
CCN1CCN(c2cc3c(cc2F)c(=O)c(C(=O)O)cn3C2CC2)CC1C.I.O (stereo not shown) [Example 4] :: 0.25

Consider the record given below.
Task: So what's the measured MIC for this one? C[C@@H]1CN(c2cc3c(cc2F)c(=O)c(C(=O)O)cn3C2CC2)C[C@H](C)N1 [Example 3]
Output: 0.125

====

// MIC collected for Staphylococcus 133
Give your result in µg/mL as a bare value.

C[C@@H]1CN(c2cc3c(cc2F)c(=O)c(C(=O)O)cn3C2CC2)C[C@H](C)N1 [Example 3] :: 0.25

Task: Write down the reported MIC of CCN1CCN(c2cc3c(cc2F)c(=O)c(C(=O)O)cn3C2CC2)CC1C.I.O (stereo not shown) [Example 4] , test system: Staphylococcus 133.
Output: 0.25

Task: Which measured MIC belongs to CCN1[C@H](C)CN(c2cc3c(cc2F)c(=O)c(C(=O)O)cn3C2CC2)C[C@@H]1C [Example 5] , tested on Staphylococcus 133?
Output: 0.5

Task: What is its MIC for Staphylococcus 133? Entry: CC1CN(c2cc3c(cc2F)c(=O)c(C(=O)O)cn3C2CC2)CCN1 (stereo not shown) [Example 1]
Output: 0.25

====

- System: E. coli Neumann
- TEST_NAME: MIC, agar dilution test; Denley multipoint inoculation procedure
- Type: cell-based
- CONDITION: Escherichia coli, read-out: Minimum inhibitory concentration (MIC)
// values below are reported MIC
Quick reminder: number only, in µg/mL, skip the unit.

CCN1[C@H](C)CN(c2cc3c(cc2F)c(=O)c(C(=O)O)cn3C2CC2)C[C@@H]1C :: 0.03

From here, focus on the item given below.
Task: Consider the compound shown here: CCN1CCN(c2cc3c(cc2F)c(=O)c(C(=O)O)cn3C2CC2)CC1C.I.O (stereo not shown) What is its recorded MIC?
Output: 0.03
